Test: alkaline duodenal secretion in anaesthetized rats
Assay type: in vivo, male rats
Conditions: 1 mg/kg intravenously; AUC of alkaline flow rate 1 h to 2 h compared with control animals
Experimental: The activity of the products on alkaline duodenal secretion in rats is studied in accordance with a technique described by FLEMSTROM and coll. Gastroenterology, 1983, 84, p. 787-794. […] The variations in the intraluminal alkaline secretion are measured by pHmetry every 10 minutes by means of an automated system maintaining a constant pH of 7.4 by in situ addition of a 0.04N solution of hydrochloric acid. […] The following are determined for each product: […]
Counter-ions that a name gives are not always drawn.
Measurement Name: Increase AUC 1 2 h
Just the number, please.

Look up Increase AUC 1 2 h for this compound: CCC(CC=Cc1ccccc1)(c1ccccc1)N(C)CC1CCC1 (stereo not shown) [Example 12]
41.6

Next up: CCC(CC=Cc1ccccc1)(c1ccccc1)N(C)CC1CC1 (single isomer, unassigned) [Example 10, hydrochloride]
66.2

Could you do the same for CCC(CC=Cc1ccccc1)(c1ccccc1)N(C)CC1CCCCC1 (stereo not shown) [Example 7] , please?
52.8

Likewise for CCC(CC=Cc1ccccc1)(c1ccccc1)N(C)CC1CC1 (stereo not shown) [Example 9] ?
97.6
